Measurement Label: melting point

Prompt: Please look up its melting point: `CCCCCC/C(=C\c1ccccc1)CNc1cccc(-c2ccnc3c(C(=O)c4cccs4)cnn23)c1`
Completion: 110 to 115 °C

Prompt: What about this compound? `COc1cncnc1N1CCN(CCCc2c[nH]c3ccc(Nc4c(OC(C)C)c(=O)c4=O)cc23)CC1`
Completion: 140 to 143 °C

Prompt: Now give it for `COc1cccc2cc(CNCCN3C(=O)CC4(CCCC4)CC3=O)oc12` too.
Completion: 156 to 158 °C

====

Measurement Label: melting point

Prompt: Could you share which melting point value was measured for S=C(Nc1ccccc1)OC1CN2CCC1CC2 (configuration not stated) ?
Completion: 132 to 133 °C

Prompt: How about this compound: `N#Cc1c(N)cccc1N1CCCC1`
Completion: 112 to 114 °C

Prompt: Same question for `CCOC(=O)c1ncn(-c2nccs2)c1S` please.
Completion: 155 to 158 °C

Prompt: Entry Cc1cc(C(=O)O)c2c(c1)C(C(Cl)(Cl)Cl)OC(C(Cl)(Cl)Cl)O2 (configuration not stated) please
Completion: 290 to 291 °C

Prompt: Let us now turn to `ClCc1ccc2ccc3cccc4ccc1c2c34`
Completion: 146 to 148 °C

Prompt: Next: CCCC1CCC2C3CCc4cc(O)c(C=O)cc4C3CCC12C (configuration not stated)
Completion: 122 to 123 °C

Prompt: // repeat for CCCC(=O)N1N=C(c2ccc([N+](=O)[O-])cc2)c2cc(Cl)c(Cl)cc2CC1C (configuration not stated) and report
Completion: 75 to 77 °C
